Where do the numbers come from? From paper PMC6321168.

Assay: Fecal excretion study in rats after oral NS, SF or CNS (LC–MS/MS)
Type: in vivo
Conditions: male, Sprague Dawley; rat feces, oral CNS 110 mg/kg, 96 h
# concentration at 96 h values compiled below

>  <molecule>
CC(C)=CCC[C@](C)(O[C@@H]1O[C@H](CO)[C@@H](O)[C@H](O)[C@H]1O)[C@H]1CC[C@]2(C)[C@@H]1[C@H](O)C[C@@H]1[C@@]3(C)CC[C@H](O[C@@H]4O[C@H](CO)[C@@H](O)[C@H](O)[C@H]4O[C@@H]4O[C@H](CO)[C@@H](O)[C@H](O)[C@H]4O)C(C)(C)[C@@H]3CC[C@]12C [ginsenoside Rd]

>  <unit-label>
ng/mL

>  <concentration at 96 h>
35

$$$$
>  <molecule>
CC(C)=CCC[C@](C)(O[C@@H]1O[C@H](CO)[C@@H](O)[C@H](O)[C@H]1O)[C@H]1CC[C@]2(C)[C@@H]1[C@H](O)C[C@@H]1[C@@]3(C)CC[C@H](O)C(C)(C)[C@@H]3[C@@H](O[C@@H]3O[C@H](CO)[C@@H](O)[C@H](O)[C@H]3O)C[C@]12C [ginsenoside Rg1]

>  <unit-label>
ng/mL

>  <concentration at 96 h>
24

$$$$
>  <molecule>
CC(C)=CCC[C@](C)(O[C@@H]1O[C@H](CO)[C@@H](O)[C@H](O)[C@H]1O)[C@H]1CC[C@]2(C)[C@@H]1[C@H](O)C[C@@H]1[C@@]3(C)CC[C@H](O)C(C)(C)[C@@H]3[C@@H](O[C@@H]3O[C@H](CO)[C@@H](O)[C@H](O)[C@H]3O[C@@H]3O[C@@H](C)[C@H](O)[C@@H](O)[C@H]3O)C[C@]12C [ginsenoside Re]

>  <unit-label>
ng/mL

>  <concentration at 96 h>
44

$$$$
>  <molecule>
CC(C)=CCC[C@](C)(O[C@@H]1O[C@H](CO[C@@H]2O[C@H](CO)[C@@H](O)[C@H](O)[C@H]2O)[C@@H](O)[C@H](O)[C@H]1O)[C@H]1CC[C@]2(C)[C@@H]1[C@H](O)C[C@@H]1[C@@]3(C)CC[C@H](O[C@@H]4O[C@H](CO)[C@@H](O)[C@H](O)[C@H]4O[C@@H]4O[C@H](CO)[C@@H](O)[C@H](O)[C@H]4O)C(C)(C)[C@@H]3CC[C@]12C [ginsenoside Rb1]

>  <unit-label>
ng/mL

>  <concentration at 96 h>
21

$$$$

###

Assay: Fecal excretion study in rats after oral NS, SF or CNS (LC–MS/MS)
Format: in vivo
Conditions: male, Sprague Dawley; rat feces, oral NS 60 mg/kg, 12 h
measured-endpoint: concentration at 12 h

>  <molecule>
CC(C)=CCC[C@](C)(O[C@@H]1O[C@H](CO[C@@H]2O[C@H](CO)[C@@H](O)[C@H](O)[C@H]2O)[C@@H](O)[C@H](O)[C@H]1O)[C@H]1CC[C@]2(C)[C@@H]1[C@H](O)C[C@@H]1[C@@]3(C)CC[C@H](O[C@@H]4O[C@H](CO)[C@@H](O)[C@H](O)[C@H]4O[C@@H]4O[C@H](CO)[C@@H](O)[C@H](O)[C@H]4O)C(C)(C)[C@@H]3CC[C@]12C [ginsenoside Rb1]

>  <measured-endpoint>
concentration at 12 h

>  <experimental-value>
2.06 µg/mL

$$$$
>  <molecule>
CC(C)=CCC[C@](C)(O[C@@H]1O[C@H](CO)[C@@H](O)[C@H](O)[C@H]1O)[C@H]1CC[C@]2(C)[C@@H]1[C@H](O)C[C@@H]1[C@@]3(C)CC[C@H](O[C@@H]4O[C@H](CO)[C@@H](O)[C@H](O)[C@H]4O[C@@H]4O[C@H](CO)[C@@H](O)[C@H](O)[C@H]4O)C(C)(C)[C@@H]3CC[C@]12C [ginsenoside Rd]

>  <measured-endpoint>
concentration at 12 h

>  <experimental-value>
0.602 µg/mL

$$$$
>  <molecule>
CC(C)=CCC[C@](C)(O[C@@H]1O[C@H](CO)[C@@H](O)[C@H](O)[C@H]1O)[C@H]1CC[C@]2(C)[C@@H]1[C@H](O)C[C@@H]1[C@@]3(C)CC[C@H](O)C(C)(C)[C@@H]3[C@@H](O[C@@H]3O[C@H](CO)[C@@H](O)[C@H](O)[C@H]3O[C@@H]3O[C@@H](C)[C@H](O)[C@@H](O)[C@H]3O)C[C@]12C [ginsenoside Re]

>  <measured-endpoint>
concentration at 12 h

>  <experimental-value>
0.401 µg/mL

$$$$
>  <molecule>
CC(C)=CCC[C@](C)(O[C@@H]1O[C@H](CO)[C@@H](O)[C@H](O)[C@H]1O)[C@H]1CC[C@]2(C)[C@@H]1[C@H](O)C[C@@H]1[C@@]3(C)CC[C@H](O)C(C)(C)[C@@H]3[C@@H](O[C@@H]3O[C@H](CO)[C@@H](O)[C@H](O)[C@H]3O)C[C@]12C [ginsenoside Rg1]

>  <measured-endpoint>
concentration at 12 h

>  <experimental-value>
1.09 µg/mL

$$$$
